The reader will find reported ADCC reporter gene assay EC50 (nM), PA-1 target cells, recombinant Jurkat effector cells values listed item by item below.
- ASSAYED SYSTEM: ROR1 naturally expressed on human tumor cell lines (A549, Jeko-1, SW620, PA-1) (human, UniProt Q01973 30-937)
- Sequence (Q01973 30-937): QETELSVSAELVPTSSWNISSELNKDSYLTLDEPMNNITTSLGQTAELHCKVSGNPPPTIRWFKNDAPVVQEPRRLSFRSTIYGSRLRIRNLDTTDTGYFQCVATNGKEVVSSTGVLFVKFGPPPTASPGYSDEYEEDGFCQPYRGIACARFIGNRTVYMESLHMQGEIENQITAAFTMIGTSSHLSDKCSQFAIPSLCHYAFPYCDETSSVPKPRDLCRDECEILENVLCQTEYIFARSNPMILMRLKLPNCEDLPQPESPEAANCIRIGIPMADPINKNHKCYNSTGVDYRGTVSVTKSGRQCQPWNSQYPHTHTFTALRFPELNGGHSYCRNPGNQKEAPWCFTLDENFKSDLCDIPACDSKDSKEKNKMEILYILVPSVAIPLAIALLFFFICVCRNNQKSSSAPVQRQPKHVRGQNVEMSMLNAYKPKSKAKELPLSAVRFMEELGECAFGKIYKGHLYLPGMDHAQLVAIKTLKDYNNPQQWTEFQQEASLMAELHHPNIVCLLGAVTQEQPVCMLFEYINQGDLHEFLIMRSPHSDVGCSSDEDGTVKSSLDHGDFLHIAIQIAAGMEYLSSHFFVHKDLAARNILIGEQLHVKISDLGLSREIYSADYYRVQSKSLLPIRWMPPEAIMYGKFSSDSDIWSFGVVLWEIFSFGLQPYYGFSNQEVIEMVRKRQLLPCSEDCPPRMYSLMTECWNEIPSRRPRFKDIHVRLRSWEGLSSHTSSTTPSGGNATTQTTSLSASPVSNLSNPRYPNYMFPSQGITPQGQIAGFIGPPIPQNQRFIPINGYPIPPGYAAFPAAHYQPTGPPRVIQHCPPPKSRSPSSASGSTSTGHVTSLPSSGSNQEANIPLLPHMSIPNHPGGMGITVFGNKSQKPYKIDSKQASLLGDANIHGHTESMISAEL
- PROTOCOL TEXT: cell-based or functional assay
PROPERTY LABEL: ADCC reporter gene assay EC50 (nM), PA-1 target cells, recombinant Jurkat effector cells

{"BINDER": "hz137G11D10-2.1 (antibody, human IgG1, kappa, V domains shown, Humanized, human IgG1/kappa) VH: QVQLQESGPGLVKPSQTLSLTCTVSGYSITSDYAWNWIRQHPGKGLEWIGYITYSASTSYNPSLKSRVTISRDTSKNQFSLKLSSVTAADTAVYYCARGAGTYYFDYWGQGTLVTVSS VL: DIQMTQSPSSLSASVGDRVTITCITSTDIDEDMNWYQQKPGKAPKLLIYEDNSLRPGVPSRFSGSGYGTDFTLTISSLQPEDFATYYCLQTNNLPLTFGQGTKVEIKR", "ENDPOINT RESULT": 0.04}
{"BINDER": "hz29H5D8-3.2 (antibody, human IgG1, kappa, V domains shown, Humanized, human IgG1/kappa) VH: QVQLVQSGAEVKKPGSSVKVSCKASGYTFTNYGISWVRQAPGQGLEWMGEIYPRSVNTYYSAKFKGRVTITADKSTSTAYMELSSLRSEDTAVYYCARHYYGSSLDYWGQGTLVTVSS VL: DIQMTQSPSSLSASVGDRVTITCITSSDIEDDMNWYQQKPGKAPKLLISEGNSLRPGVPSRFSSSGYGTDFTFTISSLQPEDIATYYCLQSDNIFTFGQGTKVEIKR", "ENDPOINT RESULT": 0.06}
{"BINDER": "hz135A2B10-1.1 (antibody, human IgG1, kappa, V domains shown, Humanized, human IgG1/kappa) VH: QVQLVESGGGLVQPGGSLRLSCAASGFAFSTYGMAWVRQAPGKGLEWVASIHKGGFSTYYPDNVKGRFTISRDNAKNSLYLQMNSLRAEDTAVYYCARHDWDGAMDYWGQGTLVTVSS VL: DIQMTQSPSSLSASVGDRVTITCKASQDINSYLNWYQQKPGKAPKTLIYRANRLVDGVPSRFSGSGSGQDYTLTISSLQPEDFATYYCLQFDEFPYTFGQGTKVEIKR", "ENDPOINT RESULT": 0.13}
{"BINDER": "UC-961 (antibody, V domains shown) VH: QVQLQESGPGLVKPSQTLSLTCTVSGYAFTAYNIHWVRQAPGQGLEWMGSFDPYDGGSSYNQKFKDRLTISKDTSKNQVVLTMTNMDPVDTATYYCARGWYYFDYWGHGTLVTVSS VL: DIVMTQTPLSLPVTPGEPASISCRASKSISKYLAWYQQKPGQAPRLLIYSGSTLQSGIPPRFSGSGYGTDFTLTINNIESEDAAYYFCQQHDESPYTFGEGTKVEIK", "ENDPOINT RESULT": 0.27}

The values you see were collected from patent EP4772535A1.
